Test system: β1,2-xylosyltransferase
Experiment: Solubilization of xylosyltransferase from microsomes by detergents
Type: biochemical, soybean
Conditions: detergent 1%; protein 10 mg/ml
MEASUREMENT NAME: Xylose Transferred to Acceptor (cpm), High Speed Supernatant
State the answer as a number, implicitly in cpm.

Use these answered entries as a reference point.
CCCCCCCCCCCCCCCC[n+]1ccccc1.[Cl-]: 64
C[C@H](CCC(=O)NCCC[N+](C)(C)CCCS(=O)(=O)[O-])[C@H]1CC[C@H]2[C@@H]3[C@H](O)C[C@@H]4C[C@H](O)CC[C@]4(C)[C@H]3C[C@H](O)[C@]12C: 541

Form field: reported Xylose Transferred to Acceptor (cpm), High Speed Supernatant of C[C@H](CCC(=O)NCCS(=O)(=O)O)[C@H]1CC[C@H]2[C@@H]3[C@H](O)C[C@@H]4C[C@H](O)CC[C@]4(C)[C@H]3C[C@H](O)[C@]12C [Taurocholoate]
1574

Entry under review: CCCCCCCCO[C@@H]1O[C@H](CO)[C@@H](O)[C@H](O)[C@H]1O [Octylglucoside] . Reported Xylose Transferred to Acceptor (cpm), High Speed Supernatant?
210
